biological target: T-type calcium channel (Homo sapiens); assay: T-type channel blocking, FLIPR data (Table 6); format: cell-based; conditions: CAv3.2, closed state, read-out: CAv3.2 IC50 Closed
pIC50: −log10 of the molar value.
endpoint.name: pIC50

# compound, pIC50
rows = [
    ("O=C(NC[C@H]1C[C@H](S(=O)(=O)c2cccc(Cl)c2)C1)c1ccc(C(F)(F)F)cn1 [Compound 774]", 5.18),
    ("CC(C)S(=O)(=O)c1cc(C(F)(F)F)cnc1C(=O)NCC1CC(C(C)(C)S(=O)(=O)c2cccc(C(F)(F)F)c2)C1 (stereo not shown) [Compound 613]", 5.04),
]

----------
molecular target: CAv1.2 (Homo sapiens, UniProt Q13936); assay: FLIPR data, CAv1.2 channel blocking (Table 6); format: cell-based; settings: inactivated state, read-out: CAv1.2 IC50 Inact.
Measured pIC50 by item
Quick note: pIC50 means taking -log10 of the concentration in moles per liter.

# smiles.entry, pIC50
measured = [
    ("CC(C)([C@H]1C[C@H](NC(=O)c2ccnc(C(F)(F)F)c2)C1)S(=O)(=O)c1cccc(C(F)(F)F)c1", 5.48),
]

Tell me pIC50 reported for CC(C)S(=O)(=O)c1cc(C(F)(F)F)cnc1C(=O)N[C@H]1C[C@H](C(C)(C)S(=O)(=O)c2cccc(OC(F)(F)F)c2)C1
5.21

----------
biological target: T-type calcium channel (Homo sapiens, UniProt O43497); assay: T-type channel blocking, FLIPR data (Table 6); conditions: CAv3.1
pIC50: −log10 of the molar value.
endpoint.name: pIC50

# compound, recorded.measurement
records = [
    ("CC(C)([C@H]1C[C@@H](NS(=O)(=O)c2ccc(C(F)(F)F)nc2)C1)S(=O)(=O)c1cccc(C(F)(F)F)c1 [Compound 629]", 5.53),
]

1. CC(C)([C@H]1C[C@@H](CNC(=O)c2ccnc(C(F)(F)F)c2)C1)S(=O)(=O)c1cccc(C(F)(F)F)c1 [Compound 687]
2. Cc1nc(C(F)(F)F)ccc1NC(=O)[C@H]1C[C@H](C(C)(C)S(=O)(=O)c2cccc(C(F)(F)F)c2)C1 [Compound 768]
Task for the reader: decide whether 1 or 2 has the larger pIC50. // respond with label for picked entry
1
(1: 5.58, 2: 5.34)

A. CC(C)([C@H]1C[C@@H](Nc2ccnc(C(F)(F)F)n2)C1)S(=O)(=O)c1cc(F)cc(C(F)(F)F)c1 [Compound 648]
B. CC(C)([C@H]1C[C@@H](Nc2ccnc(C(F)(F)F)n2)C1)S(=O)(=O)c1cccc(OC(F)(F)F)c1 [Compound 646]
Which of these two has the smaller recorded pIC50: A or B ? // respond with label for picked entry
B
(B: 5.34, A: 5.55)

A. CC(C)([C@H]1C[C@@H](CNc2ccc(F)c(Cl)c2)C1)S(=O)(=O)c1cccc(C(F)(F)F)c1 [Compound 753]
B. CC(C)([C@H]1C[C@@H](C(=O)Nc2ccc(C(F)(F)F)cn2)C1)S(=O)(=O)c1cccc(C(F)(F)F)c1 [Compound 758]
Which of these two has the smaller recorded pIC50: A or B ? // respond with label for picked entry
A
(A: 5.35, B: 5.67)

----------
molecular target: N-type calcium channel subunits (α1B, α2δ, and β3a) (Homo sapiens); assay: Block of Cav2.2 channel, whole cell voltage clamp, manual and PatchXpress; type: cell-based; conditions: Table 5; table follows Assay Example 3 (whole cell voltage clamp / PatchXpress); assay not given
endpoint.name: IC50 (nM)

Please review the entries below; each comes with its answer.
# compound, recorded.measurement
rows = [
    ("O=S(=O)(NC[C@H]1C[C@H](S(=O)(=O)c2cccc(C(F)(F)F)c2)C1)c1ccc(C(F)(F)F)cc1Cl", 1280),
    ("O=C(CN1CCCCC1)N[C@H]1CC[C@H](CS(=O)(=O)c2cccc(C(F)(F)F)c2)CC1", 1810),
    ("Cc1cc(C(=O)N[C@H]2CC[C@H](S(=O)(=O)c3cccc(C(F)(F)F)c3)CC2)c(C(F)(F)F)o1", 1630),
    ("CC1(NC(=O)c2ccc(F)c(C(F)(F)F)c2)CCC(F)(S(=O)(=O)c2cccc(C(F)(F)F)c2)CC1 (centres unmarked)", 330),
    ("O=C(NC[C@H]1C[C@@H](S(=O)(=O)c2cccc(C(F)(F)F)c2)C1)c1ccc(F)c(Cl)c1", 830),
    ("O=C(NC[C@H]1C[C@H](S(=O)(=O)c2cccc(C(F)(F)F)c2)C1)c1ccnn1CC(F)(F)F", 850),
    ("O=C(N[C@H]1CC[C@@](F)(S(=O)(=O)c2cccc(OC(F)(F)F)c2)CC1)c1ccc(F)c(Cl)c1", 150),
    ("O=C(N[C@H]1CC[C@@H](S(=O)(=O)c2cc(F)cc(C(F)(F)F)c2)CC1)c1ccc(F)c(C(F)(F)F)c1", 260),
]

P. O=C(N[C@H]1CC[C@@](F)(S(=O)(=O)c2cccc(C(F)(F)F)c2)CC1)C1(C(F)(F)F)CC1
Q. O=C(NC1CCC(S(=O)(=O)c2cccc(C(F)(F)F)c2)CC1)c1cnc(C(F)(F)F)nc1 (centres unmarked)
R. O=C(NC[C@H]1C[C@H](S(=O)(=O)c2cccc(C(F)(F)F)c2)C1)c1cnc(C(F)(F)F)nc1
S. CC(C)(C)S(=O)(=O)c1ccsc1C(=O)N[C@H]1CC[C@@](F)(S(=O)(=O)c2cccc(C(F)(F)F)c2)CC1
Ascending by IC50, please: list the compounds accordingly. I'd appreciate it if you listed the labels in the requested order.
S, P, R, Q

A. O=C(N[C@H]1CC[C@@H](S(=O)(=O)c2cccc(C(F)(F)F)c2)CC1)c1ccnc(Cl)c1
B. O=C(N[C@H]1CC[C@@](F)(S(=O)(=O)c2cccc(C(F)(F)F)c2)CC1)[C@H]1CC[C@@H](c2ccccc2)N1
Task for the reader: decide whether A or B has the larger IC50. // respond with label for picked entry
A
(A: 1330 nM, B: 640 nM)

----------
target: CAv1.2 (Homo sapiens); experiment: FLIPR data, CAv1.2 channel blocking (Table 6); format: cell-based; settings: ratio closed/inactivated IC50
endpoint.name: CAv1.2 IC50 Ratio closed/inact.
// keep it numeric: no unit symbol after the value

Please review the entries below; each comes with its answer.
# molecule, CAv1.2 IC50 Ratio closed/inact.
data = [
    ("CC(C)([C@H]1C[C@@H](NC(=O)c2ccc(C(F)(F)F)cc2)C1)S(=O)(=O)c1cccc(C(F)(F)F)c1 [Compound 581]", 2.6),
    ("CC(C)S(=O)(=O)c1cc(C(F)(F)F)cnc1C(=O)N[C@H]1C[C@@H](CC(C)(C)S(=O)(=O)c2cccc(C(F)(F)F)c2)C1 [Compound 729]", 1.1),
    ("CC(C)([C@H]1C[C@@H](NC(=O)c2cc(C(F)(F)F)n[nH]2)C1)S(=O)(=O)c1cccc(OC(F)(F)F)c1 [Compound 639]", 2.7),
    ("Cn1nc(C(F)(F)F)cc1C(=O)N[C@H]1C[C@@H](CC(C)(C)S(=O)(=O)c2cccc(C(F)(F)F)c2)C1 [Compound 738]", 2.3),
    ("CC(C)([C@H]1C[C@H](NC(=O)c2ccc(F)c(Cl)c2)C1)S(=O)(=O)c1cccc(OC(F)(F)F)c1 [Compound 634]", 9.9),
]

Tell me CAv1.2 IC50 Ratio closed/inact. reported for O=C(NC[C@H]1C[C@H](S(=O)(=O)c2cc(F)cc(C(F)(F)F)c2)C1)c1ccc(Cl)cn1 [Compound 702]
1.4

----------
target: Human Cav 2.2 channels (Homo sapiens, UniProt Q00975); test: Fluorescent assay for CaV2.2 channels using potassium depolarization (VIPR/FLIPR); format: cell-based; conditions: FLIPR data; ratio closed/inact.
Sequence (Q00975 whole entry): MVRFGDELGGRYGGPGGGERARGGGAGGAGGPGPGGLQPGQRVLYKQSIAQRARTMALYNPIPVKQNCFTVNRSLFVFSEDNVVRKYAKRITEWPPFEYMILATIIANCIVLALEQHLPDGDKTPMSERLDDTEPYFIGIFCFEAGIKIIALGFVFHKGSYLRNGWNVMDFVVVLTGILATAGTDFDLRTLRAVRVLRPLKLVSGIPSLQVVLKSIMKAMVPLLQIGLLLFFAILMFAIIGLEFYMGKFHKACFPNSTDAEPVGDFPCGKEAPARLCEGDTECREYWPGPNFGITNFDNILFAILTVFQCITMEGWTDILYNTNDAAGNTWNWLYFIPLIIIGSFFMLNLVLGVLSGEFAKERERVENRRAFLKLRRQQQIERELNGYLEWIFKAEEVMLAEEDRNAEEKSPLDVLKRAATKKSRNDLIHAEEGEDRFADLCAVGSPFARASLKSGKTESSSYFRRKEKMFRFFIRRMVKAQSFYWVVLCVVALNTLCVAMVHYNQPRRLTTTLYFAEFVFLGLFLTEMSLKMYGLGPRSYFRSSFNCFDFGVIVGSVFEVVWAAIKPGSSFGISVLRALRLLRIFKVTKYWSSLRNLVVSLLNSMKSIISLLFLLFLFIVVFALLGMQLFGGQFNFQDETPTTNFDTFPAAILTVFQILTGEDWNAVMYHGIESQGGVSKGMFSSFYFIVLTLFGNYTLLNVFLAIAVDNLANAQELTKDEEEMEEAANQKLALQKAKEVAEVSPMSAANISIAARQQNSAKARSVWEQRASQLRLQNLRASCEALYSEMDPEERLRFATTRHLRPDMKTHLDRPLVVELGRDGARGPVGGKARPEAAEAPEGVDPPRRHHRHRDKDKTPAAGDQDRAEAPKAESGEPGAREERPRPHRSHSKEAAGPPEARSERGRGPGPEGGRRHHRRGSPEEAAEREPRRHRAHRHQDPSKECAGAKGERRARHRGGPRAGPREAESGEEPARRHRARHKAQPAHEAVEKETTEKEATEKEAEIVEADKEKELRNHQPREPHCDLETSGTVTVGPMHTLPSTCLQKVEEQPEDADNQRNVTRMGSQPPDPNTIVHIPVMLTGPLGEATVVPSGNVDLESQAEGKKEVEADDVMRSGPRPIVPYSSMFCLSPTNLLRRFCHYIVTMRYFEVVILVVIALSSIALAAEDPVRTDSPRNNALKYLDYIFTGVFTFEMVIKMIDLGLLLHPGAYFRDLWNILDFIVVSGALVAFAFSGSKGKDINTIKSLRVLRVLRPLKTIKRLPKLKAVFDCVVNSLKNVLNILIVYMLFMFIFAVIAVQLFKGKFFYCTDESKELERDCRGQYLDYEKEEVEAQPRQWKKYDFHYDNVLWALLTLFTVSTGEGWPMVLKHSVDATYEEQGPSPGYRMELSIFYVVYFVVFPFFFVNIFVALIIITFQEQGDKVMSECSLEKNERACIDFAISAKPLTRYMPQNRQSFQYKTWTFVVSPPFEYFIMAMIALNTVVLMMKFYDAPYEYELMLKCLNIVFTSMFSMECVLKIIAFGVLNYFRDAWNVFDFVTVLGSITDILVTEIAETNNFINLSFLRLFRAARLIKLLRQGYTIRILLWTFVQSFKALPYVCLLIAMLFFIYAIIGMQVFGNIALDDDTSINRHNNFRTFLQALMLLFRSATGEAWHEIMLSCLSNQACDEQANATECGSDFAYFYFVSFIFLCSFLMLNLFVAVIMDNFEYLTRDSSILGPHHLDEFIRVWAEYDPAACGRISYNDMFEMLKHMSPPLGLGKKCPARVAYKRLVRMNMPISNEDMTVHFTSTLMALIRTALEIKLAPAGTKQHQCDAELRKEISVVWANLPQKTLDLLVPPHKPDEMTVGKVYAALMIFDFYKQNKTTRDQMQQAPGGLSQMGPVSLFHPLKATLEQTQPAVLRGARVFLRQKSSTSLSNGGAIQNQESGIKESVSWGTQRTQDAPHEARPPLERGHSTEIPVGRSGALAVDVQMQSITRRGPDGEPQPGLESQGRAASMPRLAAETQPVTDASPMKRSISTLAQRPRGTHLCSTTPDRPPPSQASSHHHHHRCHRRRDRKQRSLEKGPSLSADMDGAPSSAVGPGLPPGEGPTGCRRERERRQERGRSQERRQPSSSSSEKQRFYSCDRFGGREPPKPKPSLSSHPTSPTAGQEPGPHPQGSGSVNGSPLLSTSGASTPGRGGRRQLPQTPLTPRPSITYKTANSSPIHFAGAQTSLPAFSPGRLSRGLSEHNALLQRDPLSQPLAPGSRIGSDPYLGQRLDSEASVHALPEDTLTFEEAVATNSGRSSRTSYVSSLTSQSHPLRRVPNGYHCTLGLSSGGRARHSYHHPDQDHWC
Sequence (P54289 25-1103 partner): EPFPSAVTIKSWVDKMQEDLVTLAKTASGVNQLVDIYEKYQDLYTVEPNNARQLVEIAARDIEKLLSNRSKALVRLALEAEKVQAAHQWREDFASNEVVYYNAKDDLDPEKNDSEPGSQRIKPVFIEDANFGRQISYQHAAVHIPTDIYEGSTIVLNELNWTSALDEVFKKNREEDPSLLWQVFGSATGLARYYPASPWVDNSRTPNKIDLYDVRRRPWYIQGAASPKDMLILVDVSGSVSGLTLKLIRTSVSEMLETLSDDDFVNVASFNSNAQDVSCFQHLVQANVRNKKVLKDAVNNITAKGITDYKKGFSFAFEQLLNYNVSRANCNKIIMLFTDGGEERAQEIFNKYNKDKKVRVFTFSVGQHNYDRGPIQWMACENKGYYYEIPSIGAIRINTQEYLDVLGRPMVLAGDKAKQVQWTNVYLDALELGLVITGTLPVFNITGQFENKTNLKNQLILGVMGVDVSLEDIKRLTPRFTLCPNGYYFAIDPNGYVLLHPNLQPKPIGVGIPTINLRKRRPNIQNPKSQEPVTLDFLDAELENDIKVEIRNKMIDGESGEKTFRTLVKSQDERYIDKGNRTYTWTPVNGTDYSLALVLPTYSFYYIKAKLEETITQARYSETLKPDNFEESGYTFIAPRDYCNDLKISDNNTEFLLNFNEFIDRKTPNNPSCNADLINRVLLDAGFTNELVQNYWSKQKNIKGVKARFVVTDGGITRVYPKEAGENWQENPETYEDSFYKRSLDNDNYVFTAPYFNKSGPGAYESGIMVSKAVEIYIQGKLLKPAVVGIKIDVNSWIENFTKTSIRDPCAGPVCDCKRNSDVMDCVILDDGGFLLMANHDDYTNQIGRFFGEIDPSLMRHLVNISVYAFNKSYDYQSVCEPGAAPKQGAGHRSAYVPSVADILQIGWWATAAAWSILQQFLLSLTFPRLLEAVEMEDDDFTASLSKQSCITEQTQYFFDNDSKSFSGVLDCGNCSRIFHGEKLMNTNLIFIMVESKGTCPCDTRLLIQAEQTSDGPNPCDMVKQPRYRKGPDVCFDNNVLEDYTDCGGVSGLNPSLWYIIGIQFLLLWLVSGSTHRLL
Sequence (P54284 whole entry partner): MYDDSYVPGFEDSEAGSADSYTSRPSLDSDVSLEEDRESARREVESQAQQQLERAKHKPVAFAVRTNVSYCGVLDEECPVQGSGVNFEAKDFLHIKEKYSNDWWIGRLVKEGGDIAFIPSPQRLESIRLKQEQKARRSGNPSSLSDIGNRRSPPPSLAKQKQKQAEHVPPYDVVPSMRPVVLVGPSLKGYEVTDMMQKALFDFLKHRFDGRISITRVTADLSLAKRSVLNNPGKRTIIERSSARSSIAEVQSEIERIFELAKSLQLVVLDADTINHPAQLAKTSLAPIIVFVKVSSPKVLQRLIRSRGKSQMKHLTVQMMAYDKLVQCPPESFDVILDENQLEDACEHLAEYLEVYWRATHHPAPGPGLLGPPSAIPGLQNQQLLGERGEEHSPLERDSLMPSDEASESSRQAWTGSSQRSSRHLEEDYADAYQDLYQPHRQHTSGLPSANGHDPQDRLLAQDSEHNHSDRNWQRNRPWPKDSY
endpoint.name: CAv2.2 IC50 Ratio closed/inact.

Please review the entries below; each comes with its answer.
# compound, CAv2.2 IC50 Ratio closed/inact.
measured = [
    ("CC(C)([C@H]1C[C@@H](C(=O)Nc2ccc(C(F)(F)F)cc2)C1)S(=O)(=O)c1cccc(C(F)(F)F)c1 [Compound 756]", 10),
    ("CC(C)(C[C@H]1C[C@H](NC(=O)[C@H]2CCCC[C@H]2N)C1)S(=O)(=O)c1cccc(C(F)(F)F)c1 [Compound 742]", 3.2),
    ("CC(C)([C@H]1C[C@H](C(=O)Nc2ccc(C(F)(F)F)cc2)C1)S(=O)(=O)c1cccc(C(F)(F)F)c1 [Compound 765]", 8.1),
    ("CC(C)([C@H]1C[C@H](CNc2ccc(F)c(Cl)c2)C1)S(=O)(=O)c1cccc(C(F)(F)F)c1 [Compound 750]", 13.7),
    ("CC(C)([C@H]1C[C@H](CNc2cc(C(F)(F)F)n[nH]2)C1)S(=O)(=O)c1cccc(C(F)(F)F)c1 [Compound 752]", 13.2),
    ("CC(C)([C@H]1C[C@H](C(=O)Nc2ccc(C(F)(F)F)cc2Cl)C1)S(=O)(=O)c1cccc(C(F)(F)F)c1 [Compound 763]", 7.6),
    ("N[C@@H]1CCCC[C@@H]1C(=O)NC[C@H]1C[C@H](S(=O)(=O)c2cccc(Cl)c2)C1 [Compound 780]", 1),
    ("CC(C)([C@H]1C[C@H](C(=O)Nc2cc(C(F)(F)F)n[nH]2)C1)S(=O)(=O)c1cccc(C(F)(F)F)c1 [Compound 762]", 16.1),
]

A. CC(C)(C[C@H]1C[C@@H](NC(=O)[C@@H]2CCCC[C@H]2N)C1)S(=O)(=O)c1cccc(C(F)(F)F)c1 [Compound 741]
B. CC(C)(C[C@H]1C[C@@H](NC(=O)[C@@H]2CCCC[C@@H]2N)C1)S(=O)(=O)c1cccc(C(F)(F)F)c1 [Compound 740]
Which of these two has the smaller recorded CAv2.2 IC50 Ratio closed/inact.: A or B ? // respond with label for picked entry
A

1. CC(C)(C[C@H]1C[C@@H](NC(=O)[C@H]2CCCC[C@H]2N)C1)S(=O)(=O)c1cccc(C(F)(F)F)c1 [Compound 744]
2. O=C(c1ccc(OCC(F)(F)F)nc1)N1CC(CS(=O)(=O)c2cc(F)cc(C(F)(F)F)c2)C1 [Compound 747]
3. Cn1nc(C(F)(F)F)cc1NC(=O)[C@H]1C[C@H](C(C)(C)S(=O)(=O)c2cccc(C(F)(F)F)c2)C1 [Compound 769]
Ordering criterion: CAv2.2 IC50 Ratio closed/inact.; begin with the maximum. I'd appreciate it if you listed the labels in the requested order.
3, 1, 2
(3: 14.6, 1: 4.4, 2: 2)
